Test system: Mycobacterium tuberculosis
Experiment: Antimicrobial activity against non replicating persistence Mycobacterium tuberculosis H37Rv in anaerobic condition assessed as relative light unit after 11 days by LORA assay
Format: functional
Settings: 264 h
Measured attribute: MIC

| Compound | MIC |
| --- | --- |
| O=C1CN(/N=C/c2ccc([N+](=O)[O-])o2)C(=O)N1 | 63.9 µM |
| N[C@@H]1CONC1=O | > 128 µM |
| NC(=O)c1cnccn1 [PYRAZINAMIDE] | > 128 µM |
| CC(=O)NC[C@H]1CN(c2ccc(N3CCOCC3)c(F)c2)C(=O)O1 | 65.2 µM |

Next compound, MIC to be filled in.
INPUT: Name the recorded MIC for CC[C@H]1OC(=O)[C@H](C)[C@@H](O[C@H]2C[C@@](C)(OC)[C@@H](O)[C@H](C)O2)[C@H](C)[C@@H](O[C@@H]2O[C@H](C)C[C@H](N(C)C)[C@H]2O)[C@](C)(OC)C[C@@H](C)C(=O)[C@H](C)[C@@H](O)[C@]1(C)O .
OUTPUT: > 128 µM

---

System: Mycobacterium tuberculosis
Assay: Antimicrobial activity against non replicating persistence Mycobacterium tuberculosis H37Rv in anaerobic condition assessed as bacterial density after 10 days
Type: functional
Conditions: 240 h
Measured attribute: MIC (µM)
Kindly answer with a numeric value in µM, unit omitted.

Record excerpt, results attached:
| Molecule | Test system | MIC [µM] |
| --- | --- | --- |
| CC(=O)O[C@H]1C[C@@]2(C)[C@@H](C[C@@H](O)[C@H]3[C@@]4(C)CC[C@@H](O)[C@@H](C)[C@@H]4CC[C@@]32C)/C1=C(\CCC=C(C)C)C(=O)O | Mycobacterium tuberculosis | 7.2 |
| N[C@@H]1CONC1=O | Mycobacterium tuberculosis | 125 |
| CC(=O)N1CCN(c2ccc(OC[C@H]3CO[C@](Cn4ccnc4)(c4ccc(Cl)cc4Cl)O3)cc2)CC1 | Mycobacterium tuberculosis | 53.3 |
| CC[C@H]1OC(=O)[C@H](C)[C@@H](O[C@H]2C[C@@](C)(OC)[C@@H](O)[C@H](C)O2)[C@H](C)[C@@H](O[C@@H]2O[C@H](C)C[C@H](N(C)C)[C@H]2O)[C@](C)(OC)C[C@@H](C)C(=O)[C@H](C)[C@@H]2N(NCCCc3ccnc4ccccc34)C(=O)O[C@@]21C | Mycobacterium tuberculosis | 1.3 |
| COc1cc(Cc2cnc(N)nc2N)cc(OC)c1OC | Mycobacterium tuberculosis | 83.2 |
| O=C(Nc1ccc([N+](=O)[O-])cc1Cl)c1cc(Cl)ccc1O [NICLOSAMIDE] | Mycobacterium tuberculosis | 0.9 |
| O=C1CN(/N=C/c2ccc([N+](=O)[O-])o2)C(=O)N1 | Mycobacterium tuberculosis | 32 |
| O=C(O)c1cn(C2CC2)c2cc(N3CCNCC3)c(F)cc2c1=O | Mycobacterium tuberculosis | 33 |
| CC1COc2c(N3CCN(C)CC3)c(F)cc3c(=O)c(C(=O)O)cn1c23 (stereo not given) | Mycobacterium tuberculosis | 24.2 |
| CC[C@H]1OC(=O)[C@H](C)[C@@H](O[C@H]2C[C@@](C)(OC)[C@@H](O)[C@H](C)O2)[C@H](C)[C@@H](O[C@@H]2O[C@H](C)C[C@H](N(C)C)[C@H]2O)[C@](C)(OC)C[C@@H](C)C(=O)[C@H](C)[C@@H](O)[C@]1(C)O | Mycobacterium tuberculosis | 18.7 |

INPUT: Name the recorded MIC for CN[C@@H]1[C@H](O[C@H]2[C@H](O[C@H]3[C@H](O)[C@@H](O)[C@H](N=C(N)N)[C@@H](O)[C@@H]3N=C(N)N)O[C@@H](C)[C@]2(O)C=O)O[C@@H](CO)[C@H](O)[C@H]1O (stereo in doubt) .
OUTPUT: 0.8

INPUT: CC(C)/N=c1\cc2n(-c3ccc(Cl)cc3)c3ccccc3nc-2cc1Nc1ccc(Cl)cc1 ?
OUTPUT: 0.8

INPUT: O=C1OCCN1/N=C/c1ccc([N+](=O)[O-])o1 ?
OUTPUT: 44.8

INPUT: CN[C@H](CC(C)C)C(=O)N[C@H]1C(=O)N[C@@H](CC(N)=O)C(=O)N[C@H]2C(=O)N[C@H]3C(=O)N[C@H](C(=O)N[C@H](C(=O)O)c4cc(O)cc(O)c4-c4cc3ccc4O)[C@H](O)c3ccc(c(Cl)c3)Oc3cc2cc(c3O[C@@H]2O[C@H](CO)[C@@H](O)[C@H](O)[C@H]2O[C@H]2C[C@](C)(N)[C@H](O)[C@H](C)O2)Oc2ccc(cc2Cl)[C@H]1O ?
OUTPUT: 128

INPUT: CN(C)c1ccc(O)c2c1C[C@H]1C[C@H]3[C@H](N(C)C)C(O)=C(C(N)=O)C(=O)[C@@]3(O)C(O)=C1C2=O ?
OUTPUT: 38.4

INPUT: NC(=O)c1cnccn1 [PYRAZINAMIDE] ?
OUTPUT: 96

INPUT: CC(=O)Nc1ccc(/C=N/NC(N)=S)cc1 ?
OUTPUT: 70.4

INPUT: Cc1ncc([N+](=O)[O-])n1CCO ?
OUTPUT: 40

INPUT: O=[N+]([O-])c1cn2c(n1)OC[C@@H](OCc1ccc(OC(F)(F)F)cc1)C2 ?
OUTPUT: 12
